# System: DMPK
# protocol-summary: DMPK knockdown by transfected antisense oligonucleotides in DM1 C15 myotubes at 0.5 nM and 50 nM
# Type: cell-based
# stated-conditions: 50 nM oligonucleotide, 72 hours, qPCR, relative to vehicle control
# Protocol: Two hundred and thirty-six oligonucleotides for targeting DMPK were generated using in silico analysis. Each individual oligonucleotide was evaluated for their ability to target DMPK in cellulo at two doses—0.5 nM (low dose) and 50 nM (high dose). Briefly, DM1 C15 immortalized myoblasts were cultured in T-75 flasks until near confluency (˜80% confluent). Myoblasts were then disrupted with trypsin and seeded into 96-well microplates at a density of 50,000 cells/well. […]
Rule: Percent DMPK Reduction of 60% or more gives Yes; anything lower gives No.

substance: 315 (GCUCCUGGGCGGCGCCAGAC; chemistry not given here) [compound 315]
cat: Yes
--
substance: 271 (CCCACGUAAUACUCCAUGAC; chemistry not given here) [compound 271]
cat: No
--
substance: 285 (AUCUCGGCCGGAAUCCGCUC; chemistry not given here) [compound 285]
cat: Yes
--
substance: 251 (CUCGGCCGGAAUCCGCUCCC; chemistry not given here) [compound 251]
cat: Yes
--
substance: 316 (AGCAGGAUGUUGUCGGGUUU; chemistry not given here) [compound 316]
cat: Yes

Threshold query (Percent DMPK Reduction >= 60%) on 373 (GGGACAGACAAUAAAUACCG; chemistry not given here) [compound 373]
No

Decide: is the reported value of Percent DMPK Reduction for 284 (CACGUAAUACUCCAUGACCA; chemistry not given here) [compound 284] equal to or greater than 60%?
No

Reported Percent DMPK Reduction reaches at least 60% for 330 (CCAGCGCCCACCAGUCACAC; chemistry not given here) [compound 330] ?
Yes

In plain terms: is recorded Percent DMPK Reduction at least 60% for 301 (UGUUGUCGGGUUUGAUGUCC; chemistry not given here) [compound 301] ?
No

Is it the case that 364 (AGCGCCCACCAGUCACACUC; chemistry not given here) [compound 364] has Percent DMPK Reduction reaching or exceeding 60%?
Yes

Is it the case that 361 (GCCAUGACAAUCUCCGCCAG; chemistry not given here) [compound 361] has Percent DMPK Reduction reaching or exceeding 60%?
Yes

Is the recorded value of Percent DMPK Reduction equal to or greater than 60% for this substance? 334 (CCAUGACAAUCUCCGCCAGG; chemistry not given here) [compound 334]
Yes

Does 325 (GGUAGUUCUCAUCCUGGAAG; chemistry not given here) [compound 325] have a reported Percent DMPK Reduction of at least 60%?
No

Check this substance for Percent DMPK Reduction at or above 60%: 287 (GCCAUCUCGGCCGGAAUCCG; chemistry not given here) [compound 287]
Yes

Please check the record 333 (AUGGCAUACACCUGGCCCGU; chemistry not given here) [compound 333] and state if its Percent DMPK Reduction is at or above 60%.
No

====

# Test system: DMPK
# protocol-summary: DMPK knockdown by transfected antisense oligonucleotides in DM1 C15 myotubes at 0.5 nM and 50 nM
# Type: cell-based
# stated-conditions: 0.5 nM oligonucleotide, 72 hours, qPCR, relative to vehicle control = 1.00
quantity-kind: Normalized DMPK Remaining
Numbers only.

Recorded Normalized DMPK Remaining, per entry:
substance: 315 (GCUCCUGGGCGGCGCCAGAC; chemistry not given here) [compound 315]
quantity-kind: Normalized DMPK Remaining
observed-result: 0.91
//
substance: 292 (GCCUCUGCCUCGCGUAGUUG; chemistry not given here) [compound 292]
quantity-kind: Normalized DMPK Remaining
observed-result: 0.65
//
substance: 281 (ACAGCGGUCCAGCAGGAUGU; chemistry not given here) [compound 281]
quantity-kind: Normalized DMPK Remaining
observed-result: 0.80

Value sought for every listed substance: Normalized DMPK Remaining.
1. 247 (GGGCCCGGAUCACAGGACUG; chemistry not given here) [compound 247]
2. 276 (UGUGCACGUAGCCAAGCCGG; chemistry not given here) [compound 276]
3. 290 (GGCCAUGACAAUCUCCGCCA; chemistry not given here) [compound 290]
4. 316 (AGCAGGAUGUUGUCGGGUUU; chemistry not given here) [compound 316]
5. 351 (UGAUGUCCCUGUGCACGUAG; chemistry not given here) [compound 351]

1: 0.42; 2: 0.75; 3: 0.58; 4: 0.59; 5: 0.79

====

# System: DMPK
# protocol-summary: DMPK knockdown by transfected antisense oligonucleotides in DM1 C15 myotubes at 0.5 nM and 50 nM
# Type: cell-based
# stated-conditions: 50 nM oligonucleotide, 72 hours, relative to vehicle control = 1.00
quantity-kind: Normalized DMPK Remaining
Answers are plain numbers.

# count of solved cases: 5
substance: 410 (UACAGGUAGUUCUCAUCCUG; chemistry not given here) [compound 410]
measured-on: DMPK
Normalized DMPK Remaining: 0.27
--
substance: 387 (UCGAAGUUGCAUGUGUCGGU; chemistry not given here) [compound 387]
measured-on: DMPK
Normalized DMPK Remaining: 0.42
--
substance: 453 (CAGCAGGAUGUUGUCGGGUU; chemistry not given here) [compound 453]
measured-on: DMPK
Normalized DMPK Remaining: 0.15
--
substance: 399 (GGCACGAGACAGAACAACGG; chemistry not given here) [compound 399]
measured-on: DMPK
Normalized DMPK Remaining: 0.32
--
substance: 404 (CUCUGCCUCGCGUAGUUGAC; chemistry not given here) [compound 404]
measured-on: DMPK
Normalized DMPK Remaining: 0.09

Continue with the next substance.
System DMPK. Read-out Normalized DMPK Remaining. Item 436 (CCACUUCAGCUGUUUCAUCC; chemistry not given here) [compound 436] . Report value.
0.36

====

# System: DMPK
# protocol-summary: DMPK knockdown by transfected antisense oligonucleotides in DM1 C15 myotubes at 0.5 nM and 50 nM
# Format: cell-based
# stated-conditions: 0.5 nM oligonucleotide, 72 hours, qPCR, relative to vehicle control
quantity-kind: Percent DMPK Reduction (%)
Numbers only, in %.

Known results for substances:
substance: 331 (GGCCUCAGCCUGGCCGAAAG; chemistry not given here) [compound 331]
measured-on: DMPK
Percent DMPK Reduction (%): 14.49

substance: 255 (GUUGCGGGUUUGAUGUCCC; chemistry not given here) [compound 255]
measured-on: DMPK
Percent DMPK Reduction (%): 33.31

substance: 258 (AACUUGCUCAGCAGUGUCAG; chemistry not given here) [compound 258]
measured-on: DMPK
Percent DMPK Reduction (%): 19.81

substance: 359 (UGCACGUGUGGCUCAAGCAG; chemistry not given here) [compound 359]
measured-on: DMPK
Percent DMPK Reduction (%): 10.81

Hi team, please reply with Percent DMPK Reduction for each item in this list.
1. 278 (CCAUCUCGGCCGGAAUCCGC; chemistry not given here) [compound 278]
2. 309 (CACAGCGGUCCAGCAGGAUG; chemistry not given here) [compound 309]
3. 303 (CCGUUCCAUCUGCCCGCAGC; chemistry not given here) [compound 303]
4. 367 (GAUGUCCCUGUGCACGUAGC; chemistry not given here) [compound 367]

1: 20.50; 2: 6.62; 3: 31.74; 4: 18.99

====

# Tested on: DMPK
# protocol-summary: Dose-responsive DMPK reduction in DM1 C15 myotubes (EC-50)
# Type: cell-based
# stated-conditions: DM1 C15 differentiated myotubes, transfection, 72 hours, 100 nM
Threshold-based label: Percent DMPK reduction at 100 nM under 90% gives 1, Percent DMPK reduction at 100 nM not under 90% gives -1.

substance: 310 (GCGUAGAAGGGCGUCUGCCC; chemistry not given here) [compound 310]
measured-on: DMPK
cat: -1

substance: 362 (GCUGUCCCGGAGACCAUCCC; chemistry not given here) [compound 362]
measured-on: DMPK
cat: -1

substance: 320 (CCCAGCGCCCACCAGUCACA; chemistry not given here) [compound 320]
measured-on: DMPK
cat: 1

substance: 278 (CCAUCUCGGCCGGAAUCCGC; chemistry not given here) [compound 278]
measured-on: DMPK
cat: -1

substance: 286 (GCUUCAUCUUCACUACCGCU; chemistry not given here) [compound 286]
measured-on: DMPK
cat: 1

substance: 293 (GAAUGUCCGACAGUGUCUCC; chemistry not given here) [compound 293]
measured-on: DMPK
cat: -1

substance: 316 (AGCAGGAUGUUGUCGGGUUU; chemistry not given here) [compound 316]
measured-on: DMPK
cat: 1

substance: 346 (GACAGAACAACGGCGAACAG; chemistry not given here) [compound 346]
measured-on: DMPK
cat: -1

Problem: For the substance 272 (CUCUGCCGCAGGGACAGCCG; chemistry not given here) [compound 272] , is Percent DMPK reduction at 100 nM under 90%?
-1

Does 260 (CGAAUGUCCGACAGUGUCUC; chemistry not given here) [compound 260] have Percent DMPK reduction at 100 nM strictly under 90%?
-1
